Tested on: Pseudomonas aeruginosa
Assay: MIC, sole activity (no second agent)
Type: cell-based
Details: in the absence of Rifampicin; strain CCUG 59626
Procedure: To evaluate the potency and spectrum of the compounds both alone and in combination with another agent, susceptibility testing was performed against up to four strains of each of the four Gram negative pathogens, Escherichia coli, Pseudomonas aeruginosa, Klebsiella pneumoniae and Acinetobacter baumannii. […] MICs were determined as described herein, except that a different supplier of Cation-adjusted MHB was used. […]
Where a name gives a salt, the structure may show the parent alone. Numbered stars: 1 amine (or outer) side, 2 acyl side, 3 side chain; on linkers, the order of the positions; unused ones are H or OH. Bridge positions count the residues as written; N and C are the ends. Square brackets hold non-standard residues; d marks the D form. Peptide text beside a SMILES is read from it. * marks the point of attachment. ξ: configuration not given here. Achc(trans-4) = O=C([C@H]1CC[C@H](N[*:1])CC1)[*:2]; ξβ3hGly(cHex) = NC(CC(=O)*)C1CCCCC1; Thr(3ξ) = CC(O)[C@H](N)C(=O)O; Dab = NCC[C@H](N)C(=O)O; Dap = NC[C@H](N)C(=O)O; Inp = O=C(O)C1CCNCC1
Answer each item with its documented MIC P. aeruginosa CCUG 59626.
Units required after the number.

Lookup: Output measured MIC P. aeruginosa CCUG 59626 for this item: CC(C)C[C@@H]1NC(=O)[C@@H](Cc2ccccc2)NC(=O)[C@H](CCN)NC(=O)[C@@H](NC(=O)[C@H](CCN)NC(=O)[C@@H](NC(=O)[C@H]2CC[C@H](N)CC2)[C@@H](C)O)CCNC(=O)[C@H]([C@@H](C)O)NC(=O)[C@H](CCN)NC(=O)[C@H](CCN)NC1=O [Example 17] (H-[Achc(trans-4)]T[Dab][Dab][Dab][dF]L[Dab][Dab]T; lactam 4-C)
Found: 0.25 micrograms/mL

Lookup: Output measured MIC P. aeruginosa CCUG 59626 for this item: CC(C)C[C@@H]1NC(=O)[C@@H](Cc2ccccc2)NC(=O)[C@H](CCN)NC(=O)[C@@H](NC(=O)[C@H](CN)NC(=O)[C@@H](NC(=O)CC(N)C2CCCCC2)C(C)O)CCNC(=O)[C@H](C(C)O)NC(=O)[C@H](CCN)NC(=O)[C@H](CCN)NC1=O (stereo partly drawn) [Example 47, TFA salt] ({ξβ3hGly(cHex)}-[Thr(3ξ)][Dap][Dab][Dab][dF]L[Dab][Dab][Thr(3ξ)]; lactam 3-C)
Found: 0.125 micrograms/mL

Lookup: Output measured MIC P. aeruginosa CCUG 59626 for this item: CC(C)C[C@@H]1NC(=O)[C@@H](Cc2ccccc2)NC(=O)[C@H](CCN)NC(=O)[C@@H](NC(=O)[C@H](CCN)NC(=O)[C@@H](NC(=O)C2CCNCC2)C(C)O)CCNC(=O)[C@H](C(C)O)NC(=O)[C@H](CCN)NC(=O)[C@H](CCN)NC1=O (stereo partly drawn) [Example 29] (H-[Inp][Thr(3ξ)][Dab][Dab][Dab][dF]L[Dab][Dab][Thr(3ξ)]; lactam 4-C)
Found: 0.125 micrograms/mL
